Assay: Cytotoxicity against mouse BV2 cells
Format: cell-based, BV-2
Conditions: read-out: INH
measure: cytotoxicity (%)
Numbers only here, please. The scale is %.

What value of measured cytotoxicity is listed for CC1(c2ccc(Cl)cc2)CC(c2ccc(Cl)cc2)=Nc2ccccc2N1 (stereo unspecified) ?
28.2
